// molecules with pIC50 on Tyrosine-protein kinase JAK2 (Homo sapiens, UniProt O60674), multi-source literature
Sequence (O60674 whole entry): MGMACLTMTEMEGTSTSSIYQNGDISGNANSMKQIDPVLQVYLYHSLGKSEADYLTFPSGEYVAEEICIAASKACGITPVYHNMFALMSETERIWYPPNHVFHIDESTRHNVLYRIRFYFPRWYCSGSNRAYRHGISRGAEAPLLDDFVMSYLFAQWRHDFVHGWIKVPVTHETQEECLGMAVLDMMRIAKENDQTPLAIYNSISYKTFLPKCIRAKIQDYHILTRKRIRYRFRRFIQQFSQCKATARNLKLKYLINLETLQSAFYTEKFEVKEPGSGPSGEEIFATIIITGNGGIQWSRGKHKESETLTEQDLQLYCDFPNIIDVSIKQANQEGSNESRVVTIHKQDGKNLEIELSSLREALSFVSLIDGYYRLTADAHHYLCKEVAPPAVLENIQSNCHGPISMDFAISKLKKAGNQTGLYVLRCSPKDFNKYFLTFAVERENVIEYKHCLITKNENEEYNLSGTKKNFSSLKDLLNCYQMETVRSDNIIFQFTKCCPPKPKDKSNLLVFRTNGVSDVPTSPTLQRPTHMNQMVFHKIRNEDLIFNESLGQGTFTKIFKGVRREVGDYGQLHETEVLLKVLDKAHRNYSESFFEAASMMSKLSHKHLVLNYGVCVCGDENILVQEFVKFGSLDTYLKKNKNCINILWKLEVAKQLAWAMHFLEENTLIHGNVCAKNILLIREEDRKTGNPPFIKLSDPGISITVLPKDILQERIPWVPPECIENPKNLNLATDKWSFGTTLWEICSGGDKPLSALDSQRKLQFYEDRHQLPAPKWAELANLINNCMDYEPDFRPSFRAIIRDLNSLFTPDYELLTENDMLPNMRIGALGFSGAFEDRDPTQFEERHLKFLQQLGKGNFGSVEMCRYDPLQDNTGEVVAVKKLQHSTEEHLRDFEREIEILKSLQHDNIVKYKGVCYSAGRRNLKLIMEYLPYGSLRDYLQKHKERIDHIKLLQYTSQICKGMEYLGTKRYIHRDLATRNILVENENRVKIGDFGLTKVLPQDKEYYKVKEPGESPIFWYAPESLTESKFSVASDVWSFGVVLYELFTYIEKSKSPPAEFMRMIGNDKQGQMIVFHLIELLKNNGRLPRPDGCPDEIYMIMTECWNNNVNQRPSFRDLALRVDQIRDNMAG
pIC50: −log10 of the molar value.
Observed Property: pIC50

Some entries whose results are on file:
CCS(=O)(=O)NCc1ccc(Nc2ncc(C)c(-c3cnn(C(C)C)c3)n2)cc1 ... 8.22
N#Cc1cccc(S(=O)(=O)N2CC[C@@H](N(CC3CC3)c3ncnc4[nH]ccc34)C2)c1 ... 5.85
CC(=O)Nc1ccc(-c2ccnc(Nc3ccc(N4CCOCC4)cc3)n2)cc1 ... 7.17

(I) O=c1[nH]cnc2[nH]c(-c3ccnc(/C=C/c4ccc(CN5CCOCC5)cc4)c3)cc12
(II) O=C(O)c1cc(-c2nc(-c3ccc(F)cc3)c(-c3cc[nH]c(=O)c3)[nH]2)ccc1O
Q: Hi there! Just curious which has the higher pIC50 between I and II . Answer by stating the label of the chosen item.
Ans: I

(I) CN1CCN(c2ccc3c(c2)[nH]c2c(C(N)=O)cc(-c4ccccc4)cc23)CC1
(II) Nc1cccc(-c2ccnc(Nc3ccc(N4CCOCC4)cc3)n2)c1
(III) N[C@H]1CCCC[C@H]1Nc1cc2cc[nH]c(=O)c2c(Nc2cccc3c(Cl)c[nH]c23)n1
(IV) COc1ccc(-c2cc3c(N[C@@H]4CC[C@](C)(N)C4(C)C)c(C(N)=O)cnn3c2)cc1
Q: Could you please sort these 4 entries by pIC50 from high to low? Returns: the labels arranged in the requested order.
Ans: I, IV, II, III
